measuredOn: FLT3 (Homo sapiens)
Sequence (P36888 27-993): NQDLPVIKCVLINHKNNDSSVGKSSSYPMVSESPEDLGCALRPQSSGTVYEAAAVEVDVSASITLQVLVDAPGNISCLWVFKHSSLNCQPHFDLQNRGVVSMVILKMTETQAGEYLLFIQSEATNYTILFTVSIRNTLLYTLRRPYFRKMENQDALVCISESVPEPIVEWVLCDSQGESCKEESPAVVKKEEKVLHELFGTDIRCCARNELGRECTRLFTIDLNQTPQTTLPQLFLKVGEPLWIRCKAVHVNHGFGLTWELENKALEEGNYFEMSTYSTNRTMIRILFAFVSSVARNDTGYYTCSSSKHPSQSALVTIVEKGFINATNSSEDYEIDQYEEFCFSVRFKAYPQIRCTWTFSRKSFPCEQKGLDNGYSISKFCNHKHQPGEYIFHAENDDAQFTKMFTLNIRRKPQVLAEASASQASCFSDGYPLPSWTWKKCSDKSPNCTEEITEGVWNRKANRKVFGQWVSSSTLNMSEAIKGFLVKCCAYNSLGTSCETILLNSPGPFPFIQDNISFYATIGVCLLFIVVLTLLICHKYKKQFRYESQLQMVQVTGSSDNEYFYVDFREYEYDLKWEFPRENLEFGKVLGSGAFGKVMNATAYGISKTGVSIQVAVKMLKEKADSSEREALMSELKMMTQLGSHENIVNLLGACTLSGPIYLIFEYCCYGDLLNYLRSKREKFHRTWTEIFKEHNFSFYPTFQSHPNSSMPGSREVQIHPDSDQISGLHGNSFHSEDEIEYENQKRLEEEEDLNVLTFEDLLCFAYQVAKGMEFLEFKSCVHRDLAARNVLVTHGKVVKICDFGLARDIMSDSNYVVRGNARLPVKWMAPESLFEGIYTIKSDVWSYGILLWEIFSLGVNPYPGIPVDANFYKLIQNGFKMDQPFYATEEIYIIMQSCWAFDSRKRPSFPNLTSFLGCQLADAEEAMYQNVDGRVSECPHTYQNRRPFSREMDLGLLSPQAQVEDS
assayNotes: Reaction Biology NanoBRET target engagement assay, FLT3
Type: cell-based
experimentalParameters: transfected HEK-293 cells
# pIC50 per record follows
The value called pIC50 is obtained by taking minus log10 of the concentration in mol/L.

Before answering, review these 3 worked examples.
* CC(C)(C)c1cn2c(-c3cccc(N[C@H]4CNCC[C@@H]4F)n3)cnc2cn1 [Compound 130] | 7.96
* CC(O)(c1cn2c(-c3cccc(N[C@H]4CNCC[C@@H]4F)n3)cnc2cn1)C(F)(F)F (single isomer, unassigned) [Compound 82] | 7.40
* CC(O)(c1cn2c(-c3cccc(N[C@@H]4CCCNC4)n3)cnc2cn1)C(F)(F)F (single isomer, unassigned) [Compound 81] | 7.82

Param readout = pIC50; param system = FLT3 (Homo sapiens); param query = CC(O)(c1cn2c(-c3cccc(N[C@H]4CNC[C@@H]4F)n3)cnc2cn1)C(F)(F)F (single isomer, unassigned) [Compound 77] ; response: value
6.56

Param readout = pIC50; param system = FLT3 (Homo sapiens); param query = CC(C)(C)c1cn2c(-c3nc(N[C@H]4CNCC[C@@H]4F)c(F)cc3F)cnc2cn1 [Compound 127] ; response: value
7.80

Param readout = pIC50; param system = FLT3 (Homo sapiens); param query = FC(F)c1cn2c(-c3cccc(N[C@H]4CNC[C@@H]4F)n3)cnc2cn1 [Compound 16] ; response: value
7.68

Param readout = pIC50; param system = FLT3 (Homo sapiens); param query = CC(C)(O)c1cn2c(-c3nc(N[C@H]4CNC[C@@H]4F)c(F)cc3F)cnc2cn1 [Compound 33] ; response: value
5.82

----------
# IC50 per record follows
measuredOn: FLT3 (Homo sapiens)
assayNotes: Reaction Biology NanoBRET target engagement assay, FLT3
Format: cell-based
experimentalParameters: transfected HEK-293 cells
Report the figure in nM without appending any unit label.

Before answering, review these 7 worked examples.
* O=S1(=O)CCCN1c1cn2c(-c3cccc(N[C@H]4CNCC[C@@H]4F)n3)cnc2cn1 [Compound 97] | 0.9
* F[C@H]1CNC[C@@H]1Nc1cccc(-c2cnc3cnc(C4CC4)cn23)n1 [Compound 50] | 10
* CC(C)(C)c1cn2c(-c3cccc(N[C@@H]4CCCNC4)n3)cnc2cn1 [Compound 129] | 12
* CC(O)(c1cn2c(-c3cccc(N[C@H]4CNCC[C@@H]4F)n3)cnc2cn1)C(F)(F)F (single isomer, unassigned) [Compound 80] | 94
* O=C1CCCN1c1cn2c(-c3nc(N[C@H]4CNCC[C@@H]4F)c(F)cc3F)cnc2cn1 [Compound 107] | 0.9
* FC(F)c1cn2c(-c3cccc(N[C@H]4CNCC[C@@H]4F)n3)cnc2cn1 [Compound 25] | 6
* CC1(c2cn3c(-c4cccc(N[C@H]5CNC[C@@H]5F)n4)cnc3cn2)CC1 [Compound 1] | 6

# get_value(readout='IC50', item= O=C1CCCN1c1cn2c(-c3cccc(N[C@H]4CNC[C@@H]4F)n3)cnc2cn1 [Compound 121] )
21

----------
measuredOn: FLT3 ITD, D835V (Homo sapiens, UniProt P36888, D835V, form not given)
Construct: fused on or other part: DNA tag for qPCR detection (T7 phage fusion or DNA-tagged protein from HEK-293 cells)
assayNotes: DiscoverX KINOMEscan competition binding, FLT3 ITD, D835V
reportedProperty: Kd (pM)
Report the figure in pM without appending any unit label.

Before answering, review these 2 worked examples.
• FC(F)(F)C1(c2cn3c(-c4cccc(N[C@@H]5CCNC5)n4)cnc3cn2)CC1 = 11
• FC(F)c1cn2c(-c3cccc(N[C@H]4CNCC[C@@H]4F)n3)cnc2cn1 = 9

Pending compound:
# get_value(readout='Kd', item= F[C@H]1CNC[C@@H]1Nc1cccc(-c2cnc3cnc(C4CC4)cn23)n1 )
3

----------
System: MOLM14 D835Y cells
assayNotes: MOLM14 D835Y cell viability assay (Cell Titer Glo)
Type: cell-based
experimentalParameters: Homo sapiens, MOLM-14, 48 h
reportedProperty: IC50 (nM)
Report the figure in nM without appending any unit label.

Before answering, review these 3 worked examples.
- F[C@H]1CNC[C@@H]1Nc1cccc(-c2cnc3cnc(C4(C(F)(F)F)CC4)cn23)n1: 44
- CC(C)(O)c1cn2c(-c3cccc(N[C@@H]4CCCNC4)n3)cnc2cn1: 75
- O=C1COCCN1c1cn2c(-c3cccc(N[C@@H]4CCCNC4)n3)cnc2cn1: 86

Param readout = IC50; param system = MOLM14 D835Y cells; param query = O=S1(=O)CCCN1c1cn2c(-c3nc(N[C@@H]4CCCNC4)c(F)cc3F)cnc2cn1 ; response: value
11

----------
measuredOn: FLT3 (Homo sapiens)
Sequence (P36888 27-993): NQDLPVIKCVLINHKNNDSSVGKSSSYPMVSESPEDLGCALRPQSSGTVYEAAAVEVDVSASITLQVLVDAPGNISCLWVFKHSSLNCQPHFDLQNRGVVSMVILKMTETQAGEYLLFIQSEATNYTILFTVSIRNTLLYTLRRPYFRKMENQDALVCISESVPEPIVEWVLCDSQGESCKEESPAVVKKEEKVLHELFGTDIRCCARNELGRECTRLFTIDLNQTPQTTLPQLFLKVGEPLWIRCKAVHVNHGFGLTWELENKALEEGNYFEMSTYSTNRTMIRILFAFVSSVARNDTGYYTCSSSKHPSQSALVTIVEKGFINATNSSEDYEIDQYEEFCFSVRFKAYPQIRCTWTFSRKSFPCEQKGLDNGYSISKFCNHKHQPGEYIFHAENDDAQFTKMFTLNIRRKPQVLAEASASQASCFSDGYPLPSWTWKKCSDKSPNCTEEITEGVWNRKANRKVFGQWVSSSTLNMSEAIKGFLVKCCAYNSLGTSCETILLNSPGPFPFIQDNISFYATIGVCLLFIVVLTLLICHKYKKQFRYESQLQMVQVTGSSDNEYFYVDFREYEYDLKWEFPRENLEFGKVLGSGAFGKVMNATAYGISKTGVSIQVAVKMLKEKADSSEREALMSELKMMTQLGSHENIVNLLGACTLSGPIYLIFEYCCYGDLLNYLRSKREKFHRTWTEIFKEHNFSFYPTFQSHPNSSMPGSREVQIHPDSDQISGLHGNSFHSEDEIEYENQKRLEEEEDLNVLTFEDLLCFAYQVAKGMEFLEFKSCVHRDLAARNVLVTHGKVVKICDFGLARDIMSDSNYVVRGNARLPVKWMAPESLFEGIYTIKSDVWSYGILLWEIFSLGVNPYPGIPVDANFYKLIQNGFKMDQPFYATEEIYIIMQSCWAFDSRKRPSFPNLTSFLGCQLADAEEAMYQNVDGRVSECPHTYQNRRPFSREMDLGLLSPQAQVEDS
assayNotes: RBC HotSpot Kinase Assay, FLT3
Assay type: biochemical
Design: purchased Reaction Biology (RBC), HotSpot kinase assay
experimentalParameters: isolated kinase, 33P-ATP
# IC50 per record follows

Before answering, review these 5 worked examples.
* CC(O)(c1cn2c(-c3cc(F)cc(N[C@H]4CNC[C@@H]4F)n3)cnc2cn1)C(F)(F)F (single isomer, unassigned) [Compound 83] | < 0.5 nM
* FC(F)c1cn2c(-c3cccc(N[C@@H]4CCCNC4)n3)cnc2cn1 | < 0.5 nM
* C[C@H]1C[C@@H](Nc2cccc(-c3cnc4cnc(OCC(F)(F)F)cn34)n2)CCN1 | 0.6 nM
* CC(C)(O)c1cn2c(-c3cccc(N[C@@H]4CCCNC4)n3)cnc2cn1 | < 0.5 nM
* F[C@H]1CNC[C@@H]1Nc1cccc(-c2cnc3cnc(N4CCC(F)(F)C4)cn23)n1 | 0.7 nM

# get_value(readout='IC50', item= CC(C)Oc1cn2c(-c3cccc(N[C@@H]4CCCNC4)n3)cnc2cn1 )
< 0.5 nM

# get_value(readout='IC50', item= c1cc(N[C@@H]2CCCNC2)nc(-c2cnc3cnc(C4CC4)cn23)c1 )
0.6 nM

# get_value(readout='IC50', item= O=S1(=O)CCCN1c1cn2c(-c3nc(N[C@H]4CNC[C@@H]4F)c(F)cc3F)cnc2cn1 )
< 0.5 nM
